Test system: firefly luciferase (FLuc)
Assay: normalised percent inhibition of luminescence (vs positive and negative controls); higher = stronger inhibition
Settings: metal salt concentration 0.0001 mM; 100 mM HEPES buffer
metric-name: normalised percent inhibition (%)

O=[N+]([O-])[O-].O=[N+]([O-])[O-].[Cd+2] [cadmium nitrate] : -14
CC#N.CC#N.CC#N.CC#N.F[B-](F)(F)F.[Cu+] [tetrakis(acetonitrile)copper(I) tetrafluoroborate] : 98.8
O=[N+]([O-])[O-].O=[N+]([O-])[O-].[Cu+2] [copper(II) nitrate] : 87.3
[Cl][Fe][Cl] [iron(II) chloride] : -43.3
O=S(=O)([O-])[O-].[Fe+2] [iron(II) sulfate] : -15.4
O=[N+]([O-])[O-].[Ag+] [silver nitrate] : 98
[Cl][Pt-2]([Cl])([Cl])[Cl].[K+].[K+] [potassium tetrachloroplatinate(II)] : -10.3
O=[N+]([O-])[O-].O=[N+]([O-])[O-].[Zn+2] [zinc nitrate] : -1.38
O.O.O.O.O.O.O.O=S(=O)([O-])[O-].[Mg+2] [magnesium sulfate] : -19.2
O=[N+]([O-])[O-].O=[N+]([O-])[O-].O=[N+]([O-])[O-].[Ga+3] [gallium(III) nitrate] : -32.2
[Cl][Sn][Cl] [tin(II) chloride] : -37.6
O=[N+]([O-])[O-].O=[N+]([O-])[O-].[Pb+2] [lead(II) nitrate] : -33.9
[Cl][Fe]([Cl])[Cl] [iron(III) chloride] : -26

====

Reported normalised percent inhibition is given for each of the following molecules.
System: Renilla luciferase (RLuc)
Test: normalised percent inhibition of luminescence (vs positive and negative controls); higher = stronger inhibition
Settings: metal salt concentration 0.1 mM; screening conditions buffer
metric-name: normalised percent inhibition

[Cl][Fe][Cl] [iron(II) chloride] : 54.2%
[Cl][Fe]([Cl])[Cl] [iron(III) chloride] : 23.9%
[Cl][Pt-2]([Cl])([Cl])[Cl].[K+].[K+] [potassium tetrachloroplatinate(II)] : 27.8%
O=[N+]([O-])[O-].O=[N+]([O-])[O-].[Pb+2] [lead(II) nitrate] : -5.46%
O=S(=O)([O-])[O-].[Fe+2] [iron(II) sulfate] : 58.5%
O=[N+]([O-])[O-].O=[N+]([O-])[O-].[Zn+2] [zinc nitrate] : -8.31%
[Cl][Sn][Cl] [tin(II) chloride] : -1.32%

====

Tested on: firefly luciferase (FLuc)
Assay: normalised percent inhibition of luminescence (vs positive and negative controls); higher = stronger inhibition
Conditions: metal salt concentration 0.01 mM; screening conditions buffer
metric-name: normalised percent inhibition (%)

[Cl][Sn][Cl] [tin(II) chloride] : 6.44
O=[N+]([O-])[O-].O=[N+]([O-])[O-].[Zn+2] [zinc nitrate] : 20.5
[Cl][Pt-2]([Cl])([Cl])[Cl].[K+].[K+] [potassium tetrachloroplatinate(II)] : 32.2
O=[N+]([O-])[O-].[Ag+] [silver nitrate] : 100
[Cl][Fe]([Cl])[Cl] [iron(III) chloride] : 85.4
CC#N.CC#N.CC#N.CC#N.F[B-](F)(F)F.[Cu+] [tetrakis(acetonitrile)copper(I) tetrafluoroborate] : 8.64
O=S(=O)([O-])[O-].[Fe+2] [iron(II) sulfate] : 4.1
[Cl][Fe][Cl] [iron(II) chloride] : 2

====

Tested on: Renilla luciferase (RLuc)
Test: normalised percent inhibition of luminescence (vs positive and negative controls); higher = stronger inhibition
Details: metal salt concentration 1 mM; 100 mM HEPES buffer
Reported normalised percent inhibition is given for each of the following compounds.
metric-name: normalised percent inhibition (%)

O=[N+]([O-])[O-].O=[N+]([O-])[O-].[Cd+2] [cadmium nitrate] : 95.1
O=S(=O)([O-])[O-].[Fe+2] [iron(II) sulfate] : 105
[Cl][Fe]([Cl])[Cl] [iron(III) chloride] : 103
[Cl][Sn][Cl] [tin(II) chloride] : -53
O.O.O.O.O.O.O.O=S(=O)([O-])[O-].[Mg+2] [magnesium sulfate] : -23.4
[Cl][Pt-2]([Cl])([Cl])[Cl].[K+].[K+] [potassium tetrachloroplatinate(II)] : 69.3
CC#N.CC#N.CC#N.CC#N.F[B-](F)(F)F.[Cu+] [tetrakis(acetonitrile)copper(I) tetrafluoroborate] : 107
[Cl][Fe][Cl] [iron(II) chloride] : 103
O=[N+]([O-])[O-].[Ag+] [silver nitrate] : 106

====

Test system: Renilla luciferase (RLuc)
Experiment: normalised percent inhibition of luminescence (vs positive and negative controls); higher = stronger inhibition
Details: metal salt concentration 0.5 mM; 100 mM HEPES buffer
metric-name: normalised percent inhibition (%)

O=[N+]([O-])[O-].O=[N+]([O-])[O-].[Cu+2] [copper(II) nitrate] : 105
[Cl][Sn][Cl] [tin(II) chloride] : -38.9
O=S(=O)([O-])[O-].[Fe+2] [iron(II) sulfate] : 105
[Cl][Fe]([Cl])[Cl] [iron(III) chloride] : 103
[Cl][Fe][Cl] [iron(II) chloride] : 105
O.O.O.O.O.O.O.O=S(=O)([O-])[O-].[Mg+2] [magnesium sulfate] : -0.986
[Cl][Pt-2]([Cl])([Cl])[Cl].[K+].[K+] [potassium tetrachloroplatinate(II)] : 40.7
O=[N+]([O-])[O-].O=[N+]([O-])[O-].[Cd+2] [cadmium nitrate] : 47.1
O=[N+]([O-])[O-].[Ag+] [silver nitrate] : 106
CC#N.CC#N.CC#N.CC#N.F[B-](F)(F)F.[Cu+] [tetrakis(acetonitrile)copper(I) tetrafluoroborate] : 106

====

Reported normalised percent inhibition is given for each of the following compounds.
Tested on: firefly luciferase (FLuc)
Experiment: normalised percent inhibition of luminescence (vs positive and negative controls); higher = stronger inhibition
Settings: metal salt concentration 0.1 mM; screening conditions buffer
metric-name: normalised percent inhibition

[Cl][Fe]([Cl])[Cl] [iron(III) chloride] : 71.9%
O=S(=O)([O-])[O-].[Fe+2] [iron(II) sulfate] : -0.76%
[Cl][Fe][Cl] [iron(II) chloride] : 14.5%
CC#N.CC#N.CC#N.CC#N.F[B-](F)(F)F.[Cu+] [tetrakis(acetonitrile)copper(I) tetrafluoroborate] : 24.1%
[Cl][Sn][Cl] [tin(II) chloride] : 56.5%
[Cl][Pt-2]([Cl])([Cl])[Cl].[K+].[K+] [potassium tetrachloroplatinate(II)] : 86%
O=[N+]([O-])[O-].O=[N+]([O-])[O-].[Zn+2] [zinc nitrate] : 28.6%

====

System: NanoLuc luciferase (NLuc)
Assay: normalised percent inhibition of luminescence (vs positive and negative controls); higher = stronger inhibition
Details: metal salt concentration 0.1 mM; screening conditions buffer
Reported normalised percent inhibition is given for each of the following molecules.
metric-name: normalised percent inhibition

O=[N+]([O-])[O-].O=[N+]([O-])[O-].[Cu+2] [copper(II) nitrate] : 136%
O=[N+]([O-])[O-].O=[N+]([O-])[O-].O=[N+]([O-])[O-].[Ga+3] [gallium(III) nitrate] : 7.81%
O=[N+]([O-])[O-].O=[N+]([O-])[O-].[Pb+2] [lead(II) nitrate] : -7.45%
CC#N.CC#N.CC#N.CC#N.F[B-](F)(F)F.[Cu+] [tetrakis(acetonitrile)copper(I) tetrafluoroborate] : 158%
[Cl][Sn][Cl] [tin(II) chloride] : 1.62%
[Cl][Fe]([Cl])[Cl] [iron(III) chloride] : 28.5%
[Cl][Fe][Cl] [iron(II) chloride] : 22.5%
[Cl][Pt-2]([Cl])([Cl])[Cl].[K+].[K+] [potassium tetrachloroplatinate(II)] : 41.9%
O=[N+]([O-])[O-].[Ag+] [silver nitrate] : 119%

====

Tested on: Renilla luciferase (RLuc)
Experiment: normalised percent inhibition of luminescence (vs positive and negative controls); higher = stronger inhibition
Conditions: metal salt concentration 5 mM; 100 mM HEPES buffer
metric-name: normalised percent inhibition

CC#N.CC#N.CC#N.CC#N.F[B-](F)(F)F.[Cu+] [tetrakis(acetonitrile)copper(I) tetrafluoroborate] : 107%
[Cl][Fe]([Cl])[Cl] [iron(III) chloride] : 106%
O=S(=O)([O-])[O-].[Fe+2] [iron(II) sulfate] : 107%
[Cl][Fe][Cl] [iron(II) chloride] : 108%
[Cl][Sn][Cl] [tin(II) chloride] : 79.9%
O=[N+]([O-])[O-].[Ag+] [silver nitrate] : 106%
O=[N+]([O-])[O-].O=[N+]([O-])[O-].[Cd+2] [cadmium nitrate] : 105%
[Cl][Pt-2]([Cl])([Cl])[Cl].[K+].[K+] [potassium tetrachloroplatinate(II)] : 106%
O.O.O.O.O.O.O.O=S(=O)([O-])[O-].[Mg+2] [magnesium sulfate] : -22.4%
